- assayed.target: biotinylated labeled human GPC3 protein (produced in-house) (human, UniProt P51654 25-559, limits assumed, biotinylated (Dojindo, Cat. No. LK03); sites not stated)
- test.description: ELISA, biotinylated human GPC3 protein
Exercise: for every item that follows, state its recorded OD450 at 34.72 nM.
Note: a bare number is incomplete; add the unit.

[in] What value of OD450 at 34.72 nM has been reported for the following binder? GC33 IgG (antibody, V domains shown, Control antibody expressed as complete IgG; also called codrituzumab) VH: QVQLVQSGAEVKKPGASVKVSCKASGYTFTDYEMHWVRQAPGQGLEWMGALDPKTGDTAYSQKFKGRVTLTADKSTSTAYMELSSLTSEDTAVYYCTRFYSYTYWGQGTLVTVSS VL: DVVMTQSPLSLPVTPGEPASISCRSSQSLVHSNRNTYLHWYLQKPGQSPQLLIYKVSNRFSGVPDRFSGSGSGTDFTLKISRVEAEDVGVYYCSQNTHVPPTFGQGTKLEIKR
[out] 1.3 OD450

[in] Give the measured OD450 at 34.72 nM of hAb006LH3L1d (antibody, human IgG1, V domains shown, Humanized F3.38.7; VH H3 + VL L1d; expressed as human IgG1) VH: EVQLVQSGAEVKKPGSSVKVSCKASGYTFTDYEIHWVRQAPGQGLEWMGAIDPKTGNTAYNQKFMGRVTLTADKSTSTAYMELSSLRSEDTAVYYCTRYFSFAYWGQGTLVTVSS VL: DIVMTQTPLSLPVTPGEPASISCRSSQTFVHSNSNTYLQWYLQKPGQSPQLLIYKVSNRFSGVPDRFSGSGSGTDFTLKISRVEAEDVGVYYCFQGSHVPYTFGQGTKLEIK .
[out] 1.45 OD450

[in] May I ask what OD450 at 34.72 nM has been recorded for hAb006LH3L1e (antibody, human IgG1, V domains shown, Humanized F3.38.7; VH H3 + VL L1e; expressed as human IgG1) VH: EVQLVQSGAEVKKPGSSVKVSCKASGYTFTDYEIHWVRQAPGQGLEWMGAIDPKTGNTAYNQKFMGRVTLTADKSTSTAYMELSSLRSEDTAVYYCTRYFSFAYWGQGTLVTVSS VL: DIVMTQTPLSLPVTPGEPASISCRSSQTFVHSNVNTYLQWYLQKPGQSPQLLIYKVSNRFSGVPDRFSGSGSGTDFTLKISRVEAEDVGVYYCFQGSHVPYTFGQGTKLEIK ?
[out] 1.32 OD450

[in] Entry hAb007LH1L1d (antibody, human IgG1, V domains shown, Humanized F3.81.19; VH H1 + VL L1d; expressed as human IgG1) VH: EVQLVQSGAEVKKPGSSVKVSCKASGYTFSDYEMHWVRQAPGQGLEWMGTIDPETGNTAYNQKFKGRVTITADKSTSTAYMELSSLRSEDTAVYYCTRPYSLTYWGQGTLVTVSS VL: DIVMTQTPLSLPVTPGEPASISCRSSQSFVHSNSDTYLQWYLQKPGQSPQLLIYKVSNRFSGVPDRFSGSGSGTDFTLKISRVEAEDVGVYYCFQGSHVPYTFGQGTKLEIK : reported OD450 at 34.72 nM = ?
[out] 1.31 OD450
